Here, each record is paired with measured IC50 data.
biological target: CDK9/CycT1 (Homo sapiens); construct: Recombinant full-length His-tagged human CDK9 and CycT1; His; test: CDK9/CycT1 kinase assay (TR-FRET); conditions: Method 1, 10 μM ATP
Sequence (P50750 whole entry): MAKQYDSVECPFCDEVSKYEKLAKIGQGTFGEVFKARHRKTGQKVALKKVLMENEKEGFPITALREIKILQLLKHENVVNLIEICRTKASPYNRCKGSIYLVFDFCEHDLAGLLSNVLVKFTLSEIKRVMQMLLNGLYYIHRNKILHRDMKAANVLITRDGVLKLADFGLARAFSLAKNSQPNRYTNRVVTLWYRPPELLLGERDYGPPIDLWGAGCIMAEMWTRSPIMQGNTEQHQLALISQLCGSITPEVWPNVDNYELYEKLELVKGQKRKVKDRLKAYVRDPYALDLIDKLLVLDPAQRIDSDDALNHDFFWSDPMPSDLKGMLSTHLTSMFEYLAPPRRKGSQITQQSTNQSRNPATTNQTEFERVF
Sequence (O60563 whole entry partner): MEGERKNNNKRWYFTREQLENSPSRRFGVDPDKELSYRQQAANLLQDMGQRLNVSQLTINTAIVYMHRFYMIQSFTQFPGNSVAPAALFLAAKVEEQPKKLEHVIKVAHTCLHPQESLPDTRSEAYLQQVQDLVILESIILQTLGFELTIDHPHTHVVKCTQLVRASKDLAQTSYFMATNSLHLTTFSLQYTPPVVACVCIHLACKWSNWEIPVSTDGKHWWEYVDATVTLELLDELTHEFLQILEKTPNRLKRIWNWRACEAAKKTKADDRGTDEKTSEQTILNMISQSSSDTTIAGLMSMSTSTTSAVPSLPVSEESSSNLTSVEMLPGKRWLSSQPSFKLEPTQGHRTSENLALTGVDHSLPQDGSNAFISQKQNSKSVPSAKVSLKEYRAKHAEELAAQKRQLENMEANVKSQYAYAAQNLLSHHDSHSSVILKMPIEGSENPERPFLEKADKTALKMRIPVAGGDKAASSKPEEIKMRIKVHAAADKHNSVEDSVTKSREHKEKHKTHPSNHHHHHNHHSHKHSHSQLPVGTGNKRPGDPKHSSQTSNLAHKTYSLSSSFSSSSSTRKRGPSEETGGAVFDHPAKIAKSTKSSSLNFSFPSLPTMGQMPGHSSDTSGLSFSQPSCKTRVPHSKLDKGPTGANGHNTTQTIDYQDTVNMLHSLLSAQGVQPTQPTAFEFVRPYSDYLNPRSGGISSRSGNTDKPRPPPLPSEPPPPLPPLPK

- Line Notation: "CC(C)S(=O)(=O)Cc1cccc(Nc2ncnc(-c3ccccc3OCc3cccc(Cl)c3)n2)c1"
  IC50: "10 nM"
- Line Notation: "CS(=O)(=O)Cc1cccc(Nc2ncnc(-c3ccc(F)cc3OCCC3CC3)n2)c1"
  IC50: "29 nM"
- Line Notation: "CS(=O)(=O)Cc1cccc(Nc2ncnc(-c3ccc(F)cc3OCc3ccc(F)c(F)c3)n2)c1"
  IC50: "6 nM"
- Line Notation: "CS(=O)(=O)Cc1cccc(Nc2ncnc(-c3ccc(F)cc3OC3CC3)n2)c1"
  IC50: "29 nM"
- Line Notation: "COc1cccc(COc2cc(F)ccc2-c2ncnc(Nc3cccc(CS(C)(=O)=O)c3)n2)c1"
  IC50: "14 nM"
- Line Notation: "CC1(COc2cc(F)ccc2-c2ncnc(Nc3cccc(CS(C)(=O)=O)c3)n2)CC1"
  IC50: "11 nM"
- Line Notation: "COc1cc(F)c(F)cc1-c1ncnc(Nc2cccc(CS(C)(=O)=O)c2)n1"
  IC50: "14 nM"
- Line Notation: "CS(=O)(=O)Cc1cccc(Nc2ncnc(-c3ccc(F)cc3OCc3ccccc3F)n2)c1"
  IC50: "12 nM"
